B1: CDS2 (parent)
chain: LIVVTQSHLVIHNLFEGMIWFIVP

Variants of: B1
Assay: protein stability index of a GFP-peptide fusion (GPS, HEK-293T) (PSI 1-6); higher = more stable;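 further: lentivirally expressed fusions sorted by FACS into six bins by GFP to DsRed ratio, PSI derived from sequencing read proportions per bin multiplied by bin number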
Settings: c terminus: a fixed tail appended
Label 0 if protein stability index falls below 3; label 1 in every other case.

| mutation_label | qualitative_label |
| --- | --- |
| L1N | 0 |
| S7H | 0 |
| G17L | 1 |
| H8S | 1 |
| N13L | 1 |
| H8R | 0 |
| L14P | 0 |
| I2C | 0 |
| F21W | 0 |
| L9Q | 1 |
| L9R | 0 |
| I11F | 1 |
| E16K | 0 |
| L1H | 1 |
| N13Y | 0 |
| V3H | 1 |
| H12K | 0 |
| L1V | 1 |

The reported measurements were obtained from the supplement of paper PMC10567573.
